target: human TLR7 (Homo sapiens, UniProt Q9NYK1); assay: Human TLR7 agonist activity reporter assay (HEK-Blue TLR7 cells, SEAP reporter); conditions: human TLR7 (hTLR7) reporter assay, SEAP readout after 18 h, average where assay repeated, read-out: TLR7 Agonism EC50
Sequence (Q9NYK1 27-1049): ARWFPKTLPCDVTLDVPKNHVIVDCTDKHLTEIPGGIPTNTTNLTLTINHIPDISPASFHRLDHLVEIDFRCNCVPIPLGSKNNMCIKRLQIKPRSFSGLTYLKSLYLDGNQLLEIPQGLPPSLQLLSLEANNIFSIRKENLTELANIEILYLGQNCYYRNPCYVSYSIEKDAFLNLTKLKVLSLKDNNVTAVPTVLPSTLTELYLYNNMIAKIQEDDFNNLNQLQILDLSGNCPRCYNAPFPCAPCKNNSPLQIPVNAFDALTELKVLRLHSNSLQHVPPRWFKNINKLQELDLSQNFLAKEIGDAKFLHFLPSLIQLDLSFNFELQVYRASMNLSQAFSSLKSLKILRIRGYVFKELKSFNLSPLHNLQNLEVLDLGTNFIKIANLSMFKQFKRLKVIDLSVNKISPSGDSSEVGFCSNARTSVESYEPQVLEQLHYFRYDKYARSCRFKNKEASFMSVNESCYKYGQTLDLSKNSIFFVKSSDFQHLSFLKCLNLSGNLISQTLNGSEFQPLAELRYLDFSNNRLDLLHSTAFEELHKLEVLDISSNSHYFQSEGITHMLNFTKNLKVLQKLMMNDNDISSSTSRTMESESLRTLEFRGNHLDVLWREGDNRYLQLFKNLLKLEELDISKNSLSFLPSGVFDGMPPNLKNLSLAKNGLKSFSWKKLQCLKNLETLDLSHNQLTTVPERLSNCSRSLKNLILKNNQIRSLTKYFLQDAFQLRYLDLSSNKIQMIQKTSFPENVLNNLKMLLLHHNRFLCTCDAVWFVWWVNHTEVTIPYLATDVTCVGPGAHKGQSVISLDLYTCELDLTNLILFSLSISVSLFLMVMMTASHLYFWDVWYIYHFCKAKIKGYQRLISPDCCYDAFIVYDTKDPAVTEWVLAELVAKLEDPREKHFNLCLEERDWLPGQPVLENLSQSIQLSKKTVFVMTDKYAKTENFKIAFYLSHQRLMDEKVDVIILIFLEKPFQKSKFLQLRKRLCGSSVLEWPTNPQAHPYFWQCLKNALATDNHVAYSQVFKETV
pEC50: −log10 of the molar value.
Assay endpoint: pEC50

[
  {
    "Smiles str": "CCC[C@@H](CCO)Nc1nc(N)nc2cnn(Cc3ccc(CN4CCN(CCO)CC4)c4cccnc34)c12",
    "pEC50": 8.26
  },
  {
    "Smiles str": "CCC[C@@H](CCO)Nc1nc(N)nc2cnn(Cc3cccc4cccnc34)c12",
    "pEC50": 6.54
  },
  {
    "Smiles str": "CCC[C@@H](CCO)Nc1nc(N)nc2cnn(Cc3ccc(C(=O)N4CC5(CNC5)C4)c4cccnc34)c12",
    "pEC50": 6.36
  },
  {
    "Smiles str": "CCC[C@@H](CCO)Nc1nc(N)nc2cnn(Cc3ccc(C(=O)N4CCNC(=O)C4)c4cccnc34)c12",
    "pEC50": 6.51
  }
]

A. CCCCNc1nc(N)nc2cnn(Cc3ccc(CNC4CCOCC4)c4cccnc34)c12
B. CCC[C@@H](CCO)Nc1nc(N)nc2cnn(Cc3ccc(C(=O)NCCN)c4cccnc34)c12
Higher pEC50 between A and B ? Lab note: record the label of whichever item you select.
A
(A: 7.26, B: 6.39)

This collection of values is drawn from patent US12485123B2.
